# Test system: Muscarinic acetylcholine receptor M2 (Cavia porcellus)
# Measurement notes: Antagonist activity at muscarinic receptor M2 assessed as contraction of electrically-stimulated guinea pig left atria
# Condition info: filed as antagonist
Measured pKb values are reported for all entries that follow.
Write no unit; give the number alone.

Example compounds with recorded pKb:
CN1CCC[C@@H]1[C@@H]1CS[C@](c2ccccc2)(C2CCCCC2)O1	8.07
CN1CCC[C@H]1[C@H]1CS[C@@](c2ccccc2)(C2CCCCC2)O1	8.82
CN1CCC[C@@H]1[C@@H]1CSC(c2ccccc2)(c2ccccc2)O1	7.97
C[N+](C)(C)C[C@@H]1CS[C@@](c2ccccc2)(C2CCCCC2)O1	8.47
C[N+]1(C)CCC[C@@H]1[C@@H]1CS[C@](c2ccccc2)(C2CCCCC2)O1	8.54
CN1CCC[C@H]1[C@H]1CSC(c2ccccc2)(c2ccccc2)O1	7.58
C[N+]1(C)CCC[C@H]1[C@H]1CSC(c2ccccc2)(c2ccccc2)O1	8.78
CN1CCC[C@@H]1[C@@H]1CS[C@@](c2ccccc2)(C2CCCCC2)O1	7.13
CN1CCC[C@H]1[C@H]1CS[C@](c2ccccc2)(C2CCCCC2)O1	6.91
C[N+]1(C)CCC[C@@H]1[C@@H]1CSC(c2ccccc2)(c2ccccc2)O1	7.76

Req: For the compound `C[N+]1(C)CCC[C@@H]1[C@@H]1CS[C@@](c2ccccc2)(C2CCCCC2)O1` , what pKb is on record?
Resp: 8.6

----------
Measured pKb values are reported for all entries that follow.
# System tested: Muscarinic acetylcholine receptor M3 (Cavia porcellus) (UniProt Q8VH26)
# Sequence (Q8VH26 1-587): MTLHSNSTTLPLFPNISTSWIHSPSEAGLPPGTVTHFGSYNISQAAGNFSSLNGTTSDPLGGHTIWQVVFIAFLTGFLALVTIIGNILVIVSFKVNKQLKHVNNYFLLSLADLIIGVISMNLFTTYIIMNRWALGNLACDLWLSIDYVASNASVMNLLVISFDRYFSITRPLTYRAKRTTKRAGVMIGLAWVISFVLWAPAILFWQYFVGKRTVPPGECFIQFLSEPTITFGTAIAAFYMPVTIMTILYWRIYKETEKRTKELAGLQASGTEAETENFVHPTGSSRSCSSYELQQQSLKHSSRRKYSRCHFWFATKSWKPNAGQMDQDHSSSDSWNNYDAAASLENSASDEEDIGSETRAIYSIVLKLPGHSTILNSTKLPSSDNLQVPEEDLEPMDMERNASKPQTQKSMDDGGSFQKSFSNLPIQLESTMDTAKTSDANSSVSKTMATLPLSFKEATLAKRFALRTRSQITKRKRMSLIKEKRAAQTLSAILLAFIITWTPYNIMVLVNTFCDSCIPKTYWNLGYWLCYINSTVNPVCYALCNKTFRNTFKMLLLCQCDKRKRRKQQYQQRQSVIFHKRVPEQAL
# Measurement notes: Antagonist activity at muscarinic receptor M3 assessed as contraction of guinea pig ileum
# Assay type: functional, tissue-based
# Condition info: filed as antagonist
Write no unit; give the number alone.

Example compounds with recorded pKb:
CN1CCC[C@H]1[C@H]1CSC(c2ccccc2)(c2ccccc2)O1	8.05
CN1CCC[C@@H]1[C@@H]1CS[C@@](c2ccccc2)(C2CCCCC2)O1	7.65
CN1CCC[C@H]1[C@H]1CS[C@](c2ccccc2)(C2CCCCC2)O1	7.7

Req: For the compound `C[N+]1(C)CCC[C@@H]1[C@@H]1CSC(c2ccccc2)(c2ccccc2)O1` , what pKb is on record?
Resp: 8.26

----------
# Tested on: Muscarinic acetylcholine receptor M4, putative (Cavia porcellus)
# Measurement notes: Antagonist activity at putative muscarinic receptor M4 assessed as contraction of electrically-stimulated guinea pig lung strips
# Condition info: filed as antagonist
Property name: pKb
Write no unit; give the number alone.

Example compounds with recorded pKb:
CN1CCC[C@@H]1[C@@H]1CS[C@@](c2ccccc2)(C2CCCCC2)O1	5.98
C[N+](C)(C)C[C@@H]1CS[C@@](c2ccccc2)(C2CCCCC2)O1	6.24
C[N+]1(C)CCC[C@H]1[C@H]1CS[C@](c2ccccc2)(C2CCCCC2)O1	7.47
CN1CCC[C@H]1[C@H]1CS[C@](c2ccccc2)(C2CCCCC2)O1	5.92

Next, consider the following compound.
Req: For the compound `CN1CCC[C@H]1[C@H]1CSC(c2ccccc2)(c2ccccc2)O1` , what pKb is on record?
Resp: 6.41

----------
# System tested: Muscarinic acetylcholine receptor M3 (Homo sapiens, UniProt P20309)
# Sequence (P20309 whole entry): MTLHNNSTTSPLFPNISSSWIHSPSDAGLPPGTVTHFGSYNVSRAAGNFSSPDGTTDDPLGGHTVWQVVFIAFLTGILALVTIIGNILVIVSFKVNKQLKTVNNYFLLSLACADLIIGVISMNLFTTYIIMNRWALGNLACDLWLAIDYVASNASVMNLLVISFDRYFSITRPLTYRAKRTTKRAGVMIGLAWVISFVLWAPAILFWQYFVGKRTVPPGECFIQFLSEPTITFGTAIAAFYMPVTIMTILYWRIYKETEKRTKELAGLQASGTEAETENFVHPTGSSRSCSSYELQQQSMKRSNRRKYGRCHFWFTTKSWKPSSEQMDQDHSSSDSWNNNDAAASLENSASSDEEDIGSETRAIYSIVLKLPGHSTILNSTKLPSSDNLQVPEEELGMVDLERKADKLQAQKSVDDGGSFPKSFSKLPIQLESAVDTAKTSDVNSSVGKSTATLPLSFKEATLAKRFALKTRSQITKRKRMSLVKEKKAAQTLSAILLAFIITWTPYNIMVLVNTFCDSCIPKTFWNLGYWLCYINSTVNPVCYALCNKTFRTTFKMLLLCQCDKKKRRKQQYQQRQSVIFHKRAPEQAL
# Measurement notes: Binding affinity to human cloned muscarinic receptor M3 expressed in CHO cells
# Assay type: cell-based
Property name: Ki

C[N+]1(C)CCC[C@H]1[C@H]1CS[C@@](c2ccccc2)(C2CCCCC2)O1	0.339 nM (antagonist)
CN1CCC[C@H]1[C@H]1CSC(c2ccccc2)(c2ccccc2)O1	5.25 nM (antagonist)
C[N+]1(C)CCC[C@@H]1[C@@H]1CS[C@](c2ccccc2)(C2CCCCC2)O1	4.9 nM (antagonist)
CN1CCC[C@@H]1[C@@H]1CS[C@](c2ccccc2)(C2CCCCC2)O1	2.19 nM (antagonist)
CN1CCC[C@@H]1[C@@H]1CS[C@@](c2ccccc2)(C2CCCCC2)O1	1.45 nM (antagonist)
C[N+]1(C)CCC[C@H]1[C@H]1CSC(c2ccccc2)(c2ccccc2)O1	0.741 nM (antagonist)
CN1CCC[C@@H]1[C@@H]1CSC(c2ccccc2)(c2ccccc2)O1	2.45 nM (antagonist)
C[N+]1(C)CCC[C@@H]1[C@@H]1CS[C@@](c2ccccc2)(C2CCCCC2)O1	0.912 nM (antagonist)

Next, consider the following molecule.
Req: For the molecule `C[N+](C)(C)C[C@@H]1CS[C@@](c2ccccc2)(C2CCCCC2)O1` , what Ki is on record?
Resp: 1.78 nM (antagonist)
